Cited source for all entries: patent US10654837B2

Target: 5HTR2B (Homo sapiens)
Sequence (P41595 whole entry): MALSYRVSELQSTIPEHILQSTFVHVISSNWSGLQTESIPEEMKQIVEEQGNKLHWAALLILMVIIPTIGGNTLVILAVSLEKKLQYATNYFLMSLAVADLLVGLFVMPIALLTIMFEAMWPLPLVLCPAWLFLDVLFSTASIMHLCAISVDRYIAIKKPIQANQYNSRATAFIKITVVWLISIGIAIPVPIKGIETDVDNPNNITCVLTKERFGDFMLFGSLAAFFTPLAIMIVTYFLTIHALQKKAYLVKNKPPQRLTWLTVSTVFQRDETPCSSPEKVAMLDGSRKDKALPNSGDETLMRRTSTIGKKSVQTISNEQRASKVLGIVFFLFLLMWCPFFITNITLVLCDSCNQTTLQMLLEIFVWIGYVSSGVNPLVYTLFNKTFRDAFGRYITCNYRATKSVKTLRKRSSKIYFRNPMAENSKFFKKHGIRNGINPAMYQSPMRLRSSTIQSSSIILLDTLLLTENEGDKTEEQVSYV
Assay: 5HTR2B antagonist activity, calcium mobilization assay in human Maverick/293 cells (serotonin as agonist)
Settings: intracellular calcium, emission 525 nm, read-out: Ca assay IC50
pIC50: −log10 of the molar value.
Label Criterion met for high-side pIC50 (at or above 9) and Criterion not met for low-side pIC50 (below it).

Determine whether this molecule has pIC50 no lower than 9: COc1ccc(S(=O)(=O)N[C@H]2CCOC2)cc1C(=O)Nc1c(F)cc(F)cc1F [Compound 76]
Criterion not met

API: above_or_equal(metric=pIC50, cutoff=9) for item COc1ccc(S(=O)(=O)N[C@H](C)CO)cc1C(=O)Nc1ccccc1Cl [Compound 55b]
Criterion met

Does the molecule COc1ccc(S(=O)(=O)N[C@@H](C)CO)cc1C(=O)Nc1ccc(F)c(C)c1 [Compound 10a] have recorded pIC50 that is 9 or more?
Criterion not met

Exam item: decide whether the reported pIC50 for COc1ccc(S(=O)(=O)NC2(C)COC2)cc1C(=O)Nc1ccc(F)c(C(F)F)c1 [Compound 36] is at least 9.
Criterion not met

Determine whether measured pIC50 meets or exceeds 9 for COc1ccc(S(=O)(=O)N[C@H]2CCNC2)cc1C(=O)Nc1ccc(F)cc1 [Compound 178]
Criterion met

Hi team, for COc1ccc(S(=O)(=O)N[C@H]2CCOC2)cc1C(=O)Nc1ccc(F)c(F)c1F [Compound 88] , is the recorded pIC50 at or above 9?
Criterion not met

Does the molecule COc1ccc(S(=O)(=O)N[C@H]2C[C@H](O)C2)cc1C(=O)Nc1ccc(F)cc1Cl [Compound 144a] have recorded pIC50 that is 9 or more?
Criterion met

Decide: pIC50 of COc1ccc(S(=O)(=O)N[C@H]2CCOC2)cc1C(=O)Nc1ccc(F)c(C(F)F)c1 [Compound 167] >= 9?
Criterion met

====

Target: 5HTR2B (Homo sapiens)
Assay: 5HTR2B antagonist activity, calcium mobilization assay in human Maverick/293 cells (serotonin as agonist)
Conditions: intracellular calcium, emission 525 nm, read-out: Ca assay IC50
Experimental: The 5HTR2B antagonist activity was measured using human Maverick/293 cells in a calcium mobilization assay. […] Intracellular calcium concentration is recorded for 80 seconds by monitoring an emission at a wavelength of 525 nm with an excitation wavelength of 485 nm. Inhibition efficiency of the cell line was determined following the equation: % Inhibition=100%−(D−B)/(S−B)*100%. […]
pIC50: −log10 of the molar value.
Binary call on pIC50: satisfied from 9 upward, not satisfied beneath that.

pIC50 >= 9 for `COc1ccc(S(=O)(=O)N[C@H]2CCOC2)cc1C(=O)Nc1cccc(Cl)c1` ?
not satisfied

Does pIC50 meet or surpass 9 for `COc1ccc(S(=O)(=O)N[C@H]2CCOC2)cc1C(=O)Nc1cc(Cl)cc(C#N)c1` ?
not satisfied

Tell me whether pIC50 is at least 9 here: `COc1ccc(S(=O)(=O)N[C@H]2C[C@@](C)(O)C2)cc1C(=O)Nc1ccc(F)c(C)n1`
not satisfied

Does the molecule COc1ccc(S(=O)(=O)NC2COC[C@@H]2O)cc1C(=O)Nc1ccccc1Cl (stereo in doubt) [Compound 56a] have recorded pIC50 that is 9 or more?
satisfied

Does the reported pIC50 for `COc1ccc(S(=O)(=O)N[C@@H]2CCNC2)cc1C(=O)Nc1ccc(F)c(C)n1` fall at or above the 9 mark?
not satisfied

Is it the case that COc1ccc(S(=O)(=O)NC2CC[C@H](O)C2)cc1C(=O)Nc1ccc(F)cc1 (stereo partly drawn) [Compound 45b] has pIC50 reaching or exceeding 9?
not satisfied

Determine whether measured pIC50 meets or exceeds 9 for COCCOC[C@H](C)NS(=O)(=O)c1ccc(OC)c(C(=O)Nc2ccc(F)cc2F)c1 [Compound 147a]
not satisfied

Please indicate if the recorded pIC50 for `COc1ccc(S(=O)(=O)N[C@H]2CCOC2)cc1C(=O)Nc1ccc(C)cc1` meets or exceeds 9.
not satisfied
